# credit: patent US20240254259A1

Target: T1, full length human DPEP-1 displayed on HEK293T / HEK293-6E cells (human, UniProt P16444 17-385)
T1 construct: whole, on cells; GPI-anchored on the cell surface; also called hDPEP-1
T1 sequence (looked up): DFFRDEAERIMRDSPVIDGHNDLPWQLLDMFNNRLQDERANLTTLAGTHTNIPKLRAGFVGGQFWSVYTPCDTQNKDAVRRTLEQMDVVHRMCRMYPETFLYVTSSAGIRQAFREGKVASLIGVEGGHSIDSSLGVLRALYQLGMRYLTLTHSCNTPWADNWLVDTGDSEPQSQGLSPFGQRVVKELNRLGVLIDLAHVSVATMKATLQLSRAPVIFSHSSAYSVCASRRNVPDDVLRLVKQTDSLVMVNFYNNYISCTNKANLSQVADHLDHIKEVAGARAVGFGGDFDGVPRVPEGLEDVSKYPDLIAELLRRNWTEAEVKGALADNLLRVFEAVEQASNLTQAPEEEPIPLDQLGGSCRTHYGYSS
Assay: flow cytometry on human DPEP-1-expressing cells, monomeric VHH (Table 8 restating Table 5)
Listed below: EC50 values for each entry.
Field format: number, assumed nM, no unit text.

# example entries with known answers
sdABP07 (VHH with BAP and His6 tags) (VHH, biotin on the Biotinylation Acceptor Peptide in the flow cytometry and immunoprecipitation assays, Monomeric llama VHH with BAP and His6; also called sdAb07) VHH: EVQLVESGGGLVEYGGSLRLSCAASESTLDNYAIAWFRQAPGKEREVVSCVGKSGGRSDYADSVKGRFTISRDNAKNTVYLQMNSLKPEDTAVYSCAARRVWFGGCVLGTSQGQYDYWGQGTQVTVSS :: 15
sdABP05 (VHH with BAP and His6 tags) (VHH, biotin on the Biotinylation Acceptor Peptide in the flow cytometry and immunoprecipitation assays, Monomeric llama VHH with BAP and His6; also called sdAb05) VHH: EVQLVESGGGLVQPGGSLRLSCAASGFTFSTYAMTWVRKAPGKGFEWISSIDSGGGVTLYADSVKGRFTISKDNAKNTLYLQMNNLKPDDTAVYYCVKNYGSTSLQSRGQGTQVTVSS :: 5.3
sdABP06 (VHH with BAP and His6 tags) (VHH, biotin on the Biotinylation Acceptor Peptide in the flow cytometry and immunoprecipitation assays, Monomeric llama VHH with BAP and His6; also called sdAb06) VHH: EVQLVDSGGGLVQPGGSLRLSCAASGFTFSNYDMSWVRQGPGKGPEWVSIISYVGGLTRYSDSVKGRFTISRDNAKNTLYLQMNSLNTEDTALYYCARVKSMHPTSTTGEYDYRGRGTQVTVSS :: 0.96

Now look at this entry.
Ask: Return the recorded EC50 value; entry: sdABP03 (VHH with BAP and His6 tags) (VHH, biotin on the Biotinylation Acceptor Peptide in the flow cytometry and immunoprecipitation assays, Monomeric llama VHH with BAP and His6; also called sdAb03) VHH: EVQLVESGGGLVQPGGSLRLSCATSEFTLDYYAIGWFRQAPGKEREGVSCISSSGGTTNYADSVKGRFTISSDNAKNTVSLQMNSLRPEDTAVYYCAAARVSAYYLGNYGCLNAEYGYWGQGTQVTVSS
Result: 550
